These measurements were taken from paper PMC5809688.

systemName: T1, wild-type p38α mitogen-activated protein kinase (UniProt P47811 1-360)
T1 construct: His6 tag followed by a TEV cleavage site at the N-terminal end; also called wtp38α
T1 sequence (P47811 whole entry): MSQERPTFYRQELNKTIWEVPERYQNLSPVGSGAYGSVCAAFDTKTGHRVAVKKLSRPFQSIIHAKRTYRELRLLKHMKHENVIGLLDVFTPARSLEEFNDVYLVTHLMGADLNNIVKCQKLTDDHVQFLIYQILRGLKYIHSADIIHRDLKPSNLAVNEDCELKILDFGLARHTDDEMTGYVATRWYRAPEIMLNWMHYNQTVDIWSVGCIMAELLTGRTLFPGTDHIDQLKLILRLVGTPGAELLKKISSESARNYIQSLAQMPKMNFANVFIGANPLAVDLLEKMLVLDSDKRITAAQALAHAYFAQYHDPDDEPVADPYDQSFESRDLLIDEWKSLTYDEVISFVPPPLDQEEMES
testDescription: ITC; ITC200 microcalorimeter (Microcal); T = 298 K; heats corrected for dilution; which partner was titrated is not stated
testContext: both partners purified
parameterMeasured: pKd
pKd is defined as minus the log10 of a concentration measured in mol/L.

The binder GGRVYPVSVPYSSAQSTSKTSVTLSLVMP (peptide, UniProt Q15750 384-412, looked up) showed pKd equal to 5.54
